Tested on: Monocotyledonous and dicotyledonous test plants
measurementProtocol: Herbicidal action after emergence of the plants (post-emergence herbicidal action), Example B2
Format: in vivo
protocolConditions: postemergent application, 125 g/ha, DIGSA, 2- to 3-leaf stage, evaluated after 2-3 weeks; 100%=total damage
quantity: herbicidal damage, DIGSA (%)
State the answer as a number, implicitly in %.

A selection of reference data follows.
- molecule: "CC(C)c1nc2c(C(=O)C3=C(O)C4CCC(C4)C3=O)ccc(C(F)(F)F)n2n1 (stereo not drawn) [2.7]"
  herbicidal damage, DIGSA (%): 20
- molecule: "Cc1nc2c(C(=O)C3=C(O)C(C)(C)C(=O)C(C)(C)C3=O)ccc(C(F)(F)F)n2n1 [13.3]"
  herbicidal damage, DIGSA (%): 60
- molecule: "Cc1nnc2c(C(=O)C3=C(O)CCCC3=O)ccc(C(F)(F)F)n12 [Compound 3.4]"
  herbicidal damage, DIGSA (%): 80
- molecule: "CC(C)c1nnc2c(C(=O)C3=C(O)C4CCC(C4)C3=O)ccc(C(F)(F)F)n12 (stereo not drawn) [Compound 1.7]"
  herbicidal damage, DIGSA (%): 80
- molecule: "O=C1CCCC(O)=C1C(=O)c1ccc(C(F)(F)F)n2c(C3CC3)nnc12 [Compound 3.7]"
  herbicidal damage, DIGSA (%): 80

Now let's try a different one.
Name the recorded herbicidal damage, DIGSA for CC1(C)C(=O)C(C(=O)c2ccc(C(F)(F)F)n3c(-c4ccc(Cl)cc4)nnc23)=C(O)C(C)(C)C1=O [Compound 5.10] .
20

Value source: patent US20100035756A1
